- System: CP211
- ASSAY_NOTES: qHTS profiling for inhibitors of Plasmodium falciparum proliferation (AID 504749); note: nearly all actives have a fitted effect of over 60% in size
- PROTOCOL_CONDITIONS: P. falciparum in erythrocytes, SYBR Green DNA, 72 h; series mostly up to 28.7 µM
Results filed as inconclusive are left out. The source made the active and inactive calls. Calls come from the whole dose curve; as a rule, active = well fitted inhibition curve with a large enough effect; inconclusive = small, poorly fitted or top-dose-only effect; inactive = flat fitted curve, though single readings scatter.
Outcome codes: T for active, F for inactive

# COMPOUND, SYSTEM, CLASS_NAME
records = [
    ("CCCCC(CC)CCC(CC(C)C)OS(=O)(=O)O (stereo not drawn)", "CP211", "F"),
    ("CCCCCCCCCCCCCCCCCC(=O)OCC(C)O (stereo not drawn)", "CP211", "F"),
    ("CC(C)[C@@H](N)C(=O)O", "CP211", "F"),
    ("OCl", "CP211", "F"),
    ("Cc1c(C)c2c(c(C)c1OC(=O)CCC(=O)O)CC[C@@](C)(CCC[C@H](C)CCC[C@H](C)CCCC(C)C)O2", "CP211", "F"),
    ("CS(=O)(=O)OCC(O)C(O)COS(C)(=O)=O (stereo not drawn)", "CP211", "F"),
    ("O=P(O)(O)OC[C@H](O)CO", "CP211", "F"),
    ("CC(=O)NCCCS(=O)(=O)O", "CP211", "F"),
    ("CN1C(=O)OC(C)(C)C1=O", "CP211", "F"),
    ("NC(=S)NS(=O)(=O)c1ccc(N)cc1", "CP211", "F"),
    ("C=C1C(CCl)(CCl)C2(Cl)C(Cl)C(Cl)C1(Cl)C2(Cl)Cl (stereo not drawn)", "CP211", "T"),
    ("CN(C)C=Nc1c(I)cc(I)c(CCC(=O)O)c1I", "CP211", "F"),
    ("CSc1nc2cc(Oc3cccc(Cl)c3Cl)c(Cl)cc2[nH]1", "CP211", "T"),
]

// data source = PubChem BioAssay (NCATS)
